Just for reference, patent US20210113529A1 is where these values come from.

# target or test system: S1P1 receptor (Homo sapiens, UniProt P21453)
# Sequence (P21453 whole entry): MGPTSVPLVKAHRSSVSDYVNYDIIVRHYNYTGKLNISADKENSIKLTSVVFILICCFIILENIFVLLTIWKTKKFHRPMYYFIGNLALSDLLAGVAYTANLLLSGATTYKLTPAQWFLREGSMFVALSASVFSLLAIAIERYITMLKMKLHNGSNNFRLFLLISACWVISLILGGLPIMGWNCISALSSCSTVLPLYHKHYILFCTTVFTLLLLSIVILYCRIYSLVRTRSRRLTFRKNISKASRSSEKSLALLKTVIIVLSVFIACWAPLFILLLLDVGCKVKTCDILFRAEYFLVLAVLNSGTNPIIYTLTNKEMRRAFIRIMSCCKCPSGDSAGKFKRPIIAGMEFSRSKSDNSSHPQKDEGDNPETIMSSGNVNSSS
# assay details: GTP[γ35S] binding assay, S1P1 receptor agonist activity
pEC50: −log10 of the molar value.
quantity kind: pEC50

{"compound": "Cl.O=C(O)C1CCN(CC2=Cc3ccc(OCc4ccc(OCC(F)(F)F)c(C(F)(F)F)c4)cc3OC2)CC1 [Compound 2, monohydrochloride]", "target or test system": "S1P1 receptor (Homo sapiens, UniProt P21453)", "data value": 7.87}
